These measurements were taken from patent US20190233498A1.

# subject of test: T1, human VIP (human)
# T1 construct: also called Vasoactive Intestinal Peptide
# T1 peptide: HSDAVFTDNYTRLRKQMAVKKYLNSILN
# experiment summary: SPR, Ab immobilised
quantity kind: koff (s⁻¹)
Answer in s⁻¹, number only, no unit symbol.

Answered cases to consult:
binder	koff, s⁻¹
anti-PACAP antibody Ab3 (antibody, human IgG1, kappa, N297A, V domains shown, full-length rabbit/human chimeric antibody) VH: QEQLVESGGGLVQPEGSLTLTCTASGFSFSSSDYMCWVRQAPGKGLEWIGCIDAGSSGDTYFASWAKGRFTISKTSSTTVTLQMTSLTAADTATYFCARHLYGSITFAFGLWGQGTLVTVSS VL: AAVLTQTPSPVSAAVGGTVTINCQASQSIGSDLAWYQQKPGQPPKLLIYDASTLASGVPSRFSGSGSGTQFTLTISGVQCDDAATYYCQGTYYSSGWYTAFGGGTEVVVKR	0.1
anti-PACAP antibody Ab1 (antibody, human IgG1, kappa, N297A, V domains shown, full-length rabbit/human chimeric antibody) VH: QSVEESGGRLVTPGTPLTLTCTVSGFSLSSAVMNWVRQAPGKGLEWIGSIVASGTTYYASWANGRFTISKTSSTTMDLKMTSPTTEDTATYFCARGGGEFFIWGPGTLVTVSS VL: DPVMTQTPSSTSAAVGGTVTISCQSSESVYSNYLSWYQQKPGQPPNFLIYQASNLASGVPSRFKGSGSGTQFTLTITDLECDDAATYYCAGGYSENIVGFGGGTEVVVKR	0.025
anti-PACAP antibody Ab9.H (antibody, human IgG1, kappa, N297A, V domains shown, humanized form of Ab9, full length) VH: EVQLVESGGGLVQPGGSLRLSCAASGFTVSRDYWICWVRQAPGKGLEWIGCISAGGGSTDYANWVNGRFTISRDISKNTGYLQMNSLRAEDTAVYYCAGNLEIWGQGTLVTVSS VL: DIQMTQSPSTLSASVGDRVTITCQSSPSIYSGAFLSWYQQKPGKAPKFLIYEASKLASGVPSRFSGSGSGTEFTLTISSLQPDDFATYYCLGFYDCSSVDCHAFGGGTKVEIKR	0.14

Could you now consider this next binder?
For record anti-PACAP antibody Ab7 (antibody, human IgG1, kappa, N297A, V domains shown, full-length rabbit/human chimeric antibody) VH: QSVEESGGRLVTPGTPLTLTCTASGIDLSGYAMGWVRQAPGKGLEWIGDISTYGTTDYASWVNGRFTISRTSTTVTLKMTSLTTEDTATYFCARDYWLSLWGPGTLVTVSS VL: AAVLTQTPSPVSAAVGGTVTIKCQSSQSVYDNNALAWYQQKPGQPPKLLIYAASTLASGVPSRFKGSGSGTQFTLTINGVQCDDAATYYCLGGYDDPADNAFGGGTEVVVKR the listed koff is 0.0088
